Assay: photoredox thiol-yne dihydrothiolation of acetylene by dithiol ([1+1] macrocyclisation, forms S-CH2CH2-S bridge); [Ir(d(tBu)(CF3)ppy)2(dtbbpy)]Cl 1 mol%, DIPEA 1.5 equiv, acetylene balloon, blue LEDs 455 nm
Settings: the molecule shown is the open-chain precursor; 24-membered ring; DMF/H2O 50:1; 50.0 mM; 25.0 °C; 12.0 h
Attribute: ring closure, isolated yield
# unit: % | format: bare number

A selection of reference data follows.
O=C(CCS)OCCCOc1ccc2ccccc2c1-c1c(OCCCOC(=O)CCS)ccc2ccccc12 [45 ((R)-BINOL, axial stereo not in SMILES)] | 30
O=C(OCCCCCCS)C(F)(F)C(F)(F)C(F)(F)C(F)(F)C(=O)OCCCCCCS | 31
O=C(OCCCCCCS)C12CCC(C(=O)OCCCCCCS)(CC1)CC2 | 28
O=C(CCS)OCCCCCCCCCCCCOC(=O)CCS | 25

Could you now consider this next compound?
Prompt: Give its ring closure, isolated yield value. Item: O=C(OCCCCCCS)[C@H]1CC[C@H](C(=O)OCCCCCCS)CC1 [29 (trans)]
Response: 26
